Assay: Metabolic stability test in liver S9
Type: in vitro ADME
Conditions: pH 7.4; unchanged form after 10 minutes at 37°C, human liver S9 2 mg protein/mL, LC/MS; read-out: Remaining rate in human liver S9 (%/10min)
Value type: remaining at 10 min
Write your answer as a measured quantity: the number, then the unit.

CC(OC(=O)c1ccc(OC(=O)CCCc2ccc(NC(=O)c3ccccc3-c3ccc(C(F)(F)F)cc3)c(C(=O)N(C)C)c2)cc1)c1ccccc1 (stereo not drawn) | 13%
CCCOC(=O)c1ccc(OC(=O)CCCc2ccc(NC(=O)c3ccccc3-c3ccc(C(F)(F)F)cc3)c(C(=O)N(C)C)c2)cc1 | 0%
COC(=O)c1ccc(OC(=O)CCCc2ccc(NC(=O)c3ccccc3-c3ccc(C(F)(F)F)cc3)c(C(=O)N(C)C)c2)c(F)c1 | 0%

Query: Which value of remaining at 10 min has been reported for CC(C)OCCOC(=O)c1ccc(OC(=O)CCCc2ccc(NC(=O)c3ccccc3-c3ccc(C(F)(F)F)cc3)c(C(=O)N(C)C)c2)cc1 in the records?
Result: 5%

Query: Which value of remaining at 10 min has been reported for Cc1ccc(C(=O)Nc2ccc(CCCC(=O)Oc3ccc(C(=O)OCc4ccccc4)cc3)cc2C(=O)N(C)C)c(-c2ccc(C(F)(F)F)cc2)n1 in the records?
Result: 5%

Query: Which value of remaining at 10 min has been reported for CCOc1cc(C(=O)OC)cc(Cl)c1OC(=O)CCCc1ccc(NC(=O)c2ccc(C)nc2-c2ccc(C(F)(F)F)cc2)c(C(=O)N(C)C)c1 in the records?
Result: 5%

----------
Experiment: Metabolic stability test in plasma
Assay type: in vitro ADME, human
Conditions: unchanged form after 10 minutes at 37°C in human plasma, LC/MS; read-out: Remaining rate in human plasma (%/10min)
Method: A sample dissolved in DMSO was added to plasma of human or animal species (mouse and hamster). The solutions were incubated at 37°C for 0, 10 and 60 minutes, and acetonitrile containing formic acid (final concentration: 0.1%) was added thereto. The solutions were centrifuged, and the concentration of the sample (unchanged form) in the supernatant was determined by high performance liquid chromatography/mass spectrometry (LC/MS). […]
Value type: remaining at 10 min
Write your answer as a measured quantity: the number, then the unit.

Use these answered entries as a reference point.
COC(=O)c1cc(C)c(OC(=O)CCCc2ccc(NC(=O)c3ccccc3-c3ccc(C(F)(F)F)cc3)c(C(=O)N(C)C)c2)c(C)c1 | 98%
COc1cc(C(=O)OCC(=O)N(C)C)cc(Cl)c1OC(=O)CCCc1ccc(NC(=O)c2ccc(C)nc2-c2ccc(C(F)(F)F)cc2)c(C(=O)N(C)C)c1 | 1%
COC(=O)c1cc(C)c(OC(=O)CCCc2ccc(NC(=O)c3ccc(C)nc3-c3ccc(C(F)(F)F)cc3)c(C(=O)N(C)C)c2)c(F)c1 | 37%
COC(=O)c1cc(C)c(OC(=O)CCCc2ccc(NC(=O)c3ccc(C)nc3-c3ccc(C(F)(F)F)cc3)c(C(=O)N(C)C)c2)c(OC)c1 | 39%

Query: Which value of remaining at 10 min has been reported for COC(=O)COC(=O)c1ccc(OC(=O)CCCc2ccc(NC(=O)c3ccccc3-c3ccc(C(F)(F)F)cc3)c(C(=O)N(C)C)c2)cc1 in the records?
Result: 40%

Query: Which value of remaining at 10 min has been reported for COC(=O)c1ccc(OC(=O)C2CCN(c3ccc(NC(=O)c4ccccc4-c4ccc(C(F)(F)F)cc4)c(C(=O)N(C)C)c3)CC2)cc1 in the records?
Result: 63%

Query: Which value of remaining at 10 min has been reported for CN(C)C(=O)c1cc(CCC(=O)Oc2ccccc2)ccc1NC(=O)c1ccccc1-c1ccc(C(F)(F)F)cc1 in the records?
Result: 80%

Query: Which value of remaining at 10 min has been reported for CN(C)C(=O)c1cc(CCCC(=O)Oc2ccc(C(=O)OC3CCCc4ccccc43)cc2)ccc1NC(=O)c1ccccc1-c1ccc(C(F)(F)F)cc1 (stereo not drawn) in the records?
Result: 89%

Query: Which value of remaining at 10 min has been reported for CC(C)OC(=O)COC(=O)c1ccc(OC(=O)CCCc2ccc(NC(=O)c3ccccc3-c3ccc(C(F)(F)F)cc3)c(C(=O)N(C)C)c2)cc1 in the records?
Result: 46%

Query: Which value of remaining at 10 min has been reported for CN(C)C(=O)c1cc(CC(=O)Oc2ccccc2)ccc1NC(=O)c1ccccc1-c1ccc(C(F)(F)F)cc1 in the records?
Result: 58%

Query: Which value of remaining at 10 min has been reported for COC(=O)c1ccc(OC(=O)C2CCN(c3ccc(NC(=O)c4ccccc4-c4ccc(C(F)(F)F)cc4)c(C(=O)N(C)C)c3)CC2)c(F)c1 in the records?
Result: 24%

Query: Which value of remaining at 10 min has been reported for COc1cc(C(=O)OC(C)C)cc(F)c1OC(=O)CCCc1ccc(NC(=O)c2ccc(C)nc2-c2ccc(C(F)(F)F)cc2)c(C(=O)N(C)C)c1 in the records?
Result: 0%

----------
Assay: Stability test in buffer (pH 7.4)
Format: physicochemical
Conditions: phosphate buffer/acetonitrile 7:3; 60 minutes at 37°C, 100 mM potassium phosphate buffer (pH 7.4) and acetonitrile 7:3 (v/v), LC/MS; read-out: Buf. remaining rate (%/60min)
Parameter remaining at 1 h: see the listing below.
Write your answer as a measured quantity: the number, then the unit.

Cc1ccc(C(=O)Nc2ccc(CCCC(=O)Oc3ccc(C(=O)OC(C)C)cc3)cc2C(=O)N(C)C)c(-c2ccc(C(F)(F)F)cc2)n1 [Compound 1-81] | 97%
CN(C)C(=O)c1cc(CC(=O)Oc2ccc(F)cc2)ccc1NC(=O)c1ccccc1-c1ccc(C(F)(F)F)cc1 [Compound 1-4] | 95%
CCOC(=O)c1cc(OC)c(OC(=O)CCCc2ccc(NC(=O)c3ccc(C)nc3-c3ccc(C(F)(F)F)cc3)c(C(=O)N(C)C)c2)c(C(=O)OC)c1 [Compound 1-54] | 105%
COC(=O)c1ccc(OC(=O)CCCc2ccc(NC(=O)c3ccccc3-c3ccc(C(F)(F)F)cc3)c(C(=O)N3CCOCC3)c2)cc1 [Compound 1-26] | 102%
COC(=O)c1cc(Cl)c(OC(=O)CCCc2ccc(NC(=O)c3ccc(C)nc3-c3ccc(C(F)(F)F)cc3)c(C(=O)N(C)C)c2)c(C(C)C)c1 [Compound 1-74] | 101%

Query: Which value of remaining at 1 h has been reported for CCOC(=O)c1cc(C)c(OC(=O)CCCc2ccc(NC(=O)c3ccc(C)nc3-c3ccc(C(F)(F)F)cc3)c(C(=O)N(C)C)c2)c(Cl)c1 [Compound 1-112] in the records?
Result: 100%

Query: Which value of remaining at 1 h has been reported for CN(C)C(=O)c1cc(CCCC(=O)Oc2ccc(-c3nnn(CC(=O)OCc4ccccc4)n3)cc2)ccc1NC(=O)c1ccccc1-c1ccc(C(F)(F)F)cc1 [Compound 1-104] in the records?
Result: 96%

Query: Which value of remaining at 1 h has been reported for COC(=O)c1cc(C)c(OC(=O)CCCc2ccc(NC(=O)c3ccccc3-c3ccc(C(F)(F)F)cc3)c(C(=O)N(C)C)c2)c(C)c1 [Compound 1-64] in the records?
Result: 101%

Query: Which value of remaining at 1 h has been reported for COC(=O)c1cc(Cl)c(OC(=O)CCCc2ccc(NC(=O)c3ccc(C)nc3-c3ccc(C(F)(F)F)cc3)c(C(=O)N(C)C)c2)c(OC)c1 [Compound 1-36] in the records?
Result: 103%

Query: Which value of remaining at 1 h has been reported for COC(=O)c1cc(C)c(OC(=O)CCCc2ccc(NC(=O)c3ccccc3-c3ccc(C(F)(F)F)cc3)c(C(=O)N(C)C)c2)c(Cl)c1 [Compound 1-34] in the records?
Result: 103%

Query: Which value of remaining at 1 h has been reported for CC(C)OC(=O)c1ccc(OC(=O)CCCc2ccc(NC(=O)c3ccncc3-c3ccc(C(F)(F)F)cc3)c(C(=O)N(C)C)c2)cc1 [Compound 1-29] in the records?
Result: 98%

Query: Which value of remaining at 1 h has been reported for COC(=O)c1ccc(OC(=O)CCCc2ccc(NC(=O)c3ccccc3-c3ccc(C(F)(F)F)cc3)c(C(=O)N(C)C)c2)c(C(=O)OC)c1 [Compound 1-33] in the records?
Result: 102%

----------
Assay: Metabolic stability test in plasma
Format: in vitro ADME, human
Details: unchanged form after 60 minutes at 37°C in human plasma, LC/MS; read-out: Remaining rate in human plasma (%/60min)
Parameter remaining at 1 h: see the listing below.
The response must be a number in % with no trailing unit.

Use these answered entries as a reference point.
CC(C)OC(=O)c1ccc(OC(=O)CCCc2ccc(NC(=O)c3ccccc3-c3ccc(C(F)(F)F)cc3)c(C(=O)N(C)C)c2)cc1 | 0
COC(=O)c1ccc(-c2nc(C)ccc2C(=O)Nc2ccc(CCCC(=O)Oc3c(Cl)cc(C(=O)OC)cc3OC)cc2C(=O)N(C)C)cc1 | 0
COC(=O)c1cc(Cl)c(OC(=O)CCCc2ccc(NC(=O)c3ccc(C)nc3-c3ccc(C(F)(F)F)cc3)c(C(=O)N(C)C)c2)c(OC)c1 | 0
COC(=O)c1ccc(OC(=O)CCCc2ccc(NC(=O)c3ccncc3-c3ccc(C(F)(F)F)cc3)c(C(=O)N(C)C)c2)cc1 | 0
CN(C)C(=O)c1cc(CCCC(=O)Oc2ccc(C(=O)OCc3cccnc3)cc2)ccc1NC(=O)c1ccccc1-c1ccc(C(F)(F)F)cc1 | 0
COC(=O)c1cc(C)c(OC(=O)CCCc2ccc(NC(=O)c3ccccc3-c3ccc(C(F)(F)F)cc3)c(C(=O)N(C)C)c2)c(C)c1 | 93
COC(=O)c1ccc(OC(=O)C2CCN(c3ccc(NC(=O)c4ccccc4-c4ccc(C(F)(F)F)cc4)c(C(=O)N(C)C)c3)CC2)c(F)c1 | 0
CC(OC(=O)c1ccc(OC(=O)CCCc2ccc(NC(=O)c3ccccc3-c3ccc(C(F)(F)F)cc3)c(C(=O)N(C)C)c2)cc1)c1ccccc1 (centres unmarked) | 0
CN(C)C(=O)c1cc(CCCC(=O)Oc2ccc(C(=O)O)cc2)ccc1NC(=O)c1ccccc1-c1ccc(C(F)(F)F)cc1 | 59
CCc1cc(C(=O)OC)ccc1OC(=O)CCCc1ccc(NC(=O)c2ccccc2-c2ccc(C(F)(F)F)cc2)c(C(=O)N(C)C)c1 | 17

Query: Which value of remaining at 1 h has been reported for CN(C)C(=O)c1cc(CCCC(=O)Oc2ccc(C(=O)OCc3ccc(C(=O)OC(C)(C)C)cc3)cc2)ccc1NC(=O)c1ccccc1-c1ccc(C(F)(F)F)cc1 in the records?
Result: 55

Query: Which value of remaining at 1 h has been reported for COc1ccc(COC(=O)c2ccc(OC(=O)CCCc3ccc(NC(=O)c4ccccc4-c4ccc(C(F)(F)F)cc4)c(C(=O)N(C)C)c3)cc2)cc1 in the records?
Result: 0

Query: Which value of remaining at 1 h has been reported for COC(=O)c1cc(C)c(OC(=O)CCCc2ccc(NC(=O)c3ccc(C)nc3-c3ccc(C(F)(F)F)cc3)c(C(=O)N(C)C)c2)c(C(F)(F)F)c1 in the records?
Result: 48

Query: Which value of remaining at 1 h has been reported for CN(C)C(=O)c1cc(CCCC(=O)Oc2ccc(-c3nnn(CC(=O)OCc4ccccc4)n3)cc2)ccc1NC(=O)c1ccccc1-c1ccc(C(F)(F)F)cc1 in the records?
Result: 17

Query: Which value of remaining at 1 h has been reported for COC(=O)c1cc(OC)c(OC(=O)CCCc2ccc(NC(=O)c3ccc(C)nc3-c3ccc(C(F)(F)F)cc3)c(C(=O)N(C)C)c2)c(C(=O)OC)c1 in the records?
Result: 3

Query: Which value of remaining at 1 h has been reported for COC(=O)c1ccc(OC(=O)CCCc2ccc(NC(=O)c3ccccc3-c3ccc(C(F)(F)F)cc3)c(C(=O)N(C)C)c2)c(C(C)C)c1 in the records?
Result: 18

Query: Which value of remaining at 1 h has been reported for COC(=O)c1ccc(OC(=O)CCc2ccc(NC(=O)c3ccccc3-c3ccc(C(F)(F)F)cc3)c(C(=O)N(C)C)c2)cc1 in the records?
Result: 0

Query: Which value of remaining at 1 h has been reported for CN(C)C(=O)c1cc(CCCC(=O)Oc2ccc(C(=O)OCC(=O)OCc3ccccc3)cc2)ccc1NC(=O)c1ccccc1-c1ccc(C(F)(F)F)cc1 in the records?
Result: 2
